procedure_text: Metabolic stability in human liver microsomes
Format: in vitro ADME
measurement_conditions: human liver microsomes 0.5 mg/mL, NADPH and UDPGA, 37° C., read-out: In vitro t1/2
quantity_name: half-life at 1 μM (h)
// return numeric value only (unit: h, not printed)

[in] Requested read-out: half-life at 1 μM. Entry: [2H]c1cc(C)c(NC(=O)c2cnc(Nc3cc(N4CCCCC4)nc(C)n3)s2)c(Cl)c1 [Compound I]
[out] 4.68
